# PROCEDURE SUMMARY: Analytical size exclusion chromatography (percent monomer)
# Assay type: physicochemical
# CONDITION NOTES: NEM-conjugated cysteine variants; SEC, Abs280 monomer region 5.5-6 minutes vs oligomer region 4-5.3 minutes
Here the recorded Percent monomer is given for each entry.
Just the number please, in %, no unit attached.

R18C (conjugate, left off: small tags and cut ends) LPAPKNLVVSEVTEDSACLSWDDPWAFYESFLIQYQESEKVGEAIVLTVPGSERSYDLTGLKPGTEYTVSIYGVHNVYKDTNMRGLPLSAIFTT: 93

Asked: Can you share its Percent monomer? I mean this molecule: Y72C: cysteine variant of P54AR4-83v2; NEM and VC-MMAF conjugates (conjugate, left off: small tags and cut ends, cysteine variant of P54AR4-83v2; NEM and VC-MMAF conjugates) LPAPKNLVVSEVTEDSARLSWDDPWAFYESFLIQYQESEKVGEAIVLTVPGSERSYDLTGLKPGTEYTVSICGVHNVYKDTNMRGLPLSAIFTT
Given back: 100
